Apoptosis regulator Bcl-2 (Homo sapiens): recorded Ki for assorted compounds
Sequence (P10415 whole entry): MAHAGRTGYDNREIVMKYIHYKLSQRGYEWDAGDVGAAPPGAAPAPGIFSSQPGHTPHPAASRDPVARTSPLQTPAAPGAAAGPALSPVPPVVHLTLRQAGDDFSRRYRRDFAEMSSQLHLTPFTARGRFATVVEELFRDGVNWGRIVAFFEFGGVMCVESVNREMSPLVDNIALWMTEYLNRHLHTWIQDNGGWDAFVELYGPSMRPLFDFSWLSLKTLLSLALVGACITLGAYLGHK
measurement_type: Ki (nM)

As a guide, the following entries are already answered.
| compound | display_unit | Ki |
| --- | --- | --- |
| CN(C)CC[C@H](CSc1ccccc1)Nc1ccc(S(=O)(=O)NC(=O)c2ccc(N3CCN(C(=O)c4ccccc4)CC3)cc2)cc1[N+](=O)[O-] | nM | 61.9 |
| CCCCCC1(OC)CCN(c2ccc(C(=O)NS(=O)(=O)c3ccc(N[C@H](CCN(C)C)CSc4ccccc4)c([N+](=O)[O-])c3)cc2)CC1 | nM | 20 |
| COc1ccccc1CC1(OC)CCN(c2ccc(C(=O)NS(=O)(=O)c3ccc(N[C@H](CCN(C)C)CSc4ccccc4)c([N+](=O)[O-])c3)cc2)CC1 | nM | 1.6 |
| COC1(Cc2ccccc2Br)CCN(c2ccc(C(=O)NS(=O)(=O)c3ccc(N[C@H](CCN(C)C)CSc4ccccc4)c([N+](=O)[O-])c3)cc2)CC1 | nM | 1.5 |
| CN(C)CC[C@H](CSc1ccccc1)Nc1ccc(S(=O)(=O)NC(=O)c2ccc(N3CCN(C(=O)Nc4ccccc4)CC3)cc2)cc1[N+](=O)[O-] | nM | 300 |

P = CN(C)CC[C@H](CSc1ccccc1)Nc1ccc(S(=O)(=O)NC(=O)c2ccc(N3CCC4(CC3)CC(Cc3ccccc3)=NO4)cc2)cc1[N+](=O)[O-]
Q = COC1(Cc2ccccc2F)CCN(c2ccc(C(=O)NS(=O)(=O)c3ccc(N[C@H](CCN(C)C)CSc4ccccc4)c([N+](=O)[O-])c3)cc2)CC1
R = CN(C)CC[C@H](CSc1ccccc1)Nc1ccc(S(=O)(=O)NC(=O)c2ccc(N3CCC(=Cc4ccccn4)CC3)cc2)cc1[N+](=O)[O-]
Input line: Reorder the items by Ki, least to greatest. The labels, placed in the requested order, form the answer.
Output line: Q, P, R
(Q: 3.1 nM, P: 6.5 nM, R: 46 nM)

Hello, the source for this data is ChEMBL document CHEMBL1141382, in case you need it.
